The measured values listed here are drawn from patent US20220411471A1.

target: Human MDM2 (HDM2) 1-116 (Homo sapiens); construct: Human MDM2 (HDM2) 1-116; assay: Fluorescence polarization assay, MDM2/p53 (Table 3); format: binding
Sequence (Q00987 1-116): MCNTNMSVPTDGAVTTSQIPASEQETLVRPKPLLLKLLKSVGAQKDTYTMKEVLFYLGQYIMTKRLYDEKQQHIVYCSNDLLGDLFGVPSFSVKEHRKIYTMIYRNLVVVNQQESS
Non-standard residues stand in square brackets, D forms with d. Residues, ends and D or L forms follow the SMILES beside them. Phe(4-Cl) = N[C@@H](Cc1ccc(Cl)cc1)C(=O)O; Phe(4-F) = N[C@@H](Cc1ccc(F)cc1)C(=O)O; 3Pal = N[C@@H](Cc1cccnc1)C(=O)O; dNMeV = CN[C@@H](C(=O)O)C(C)C; Tle = CC(C)(C)[C@H](N)C(=O)O; dPip = O=C(O)[C@H]1CCCCN1; NMeA = CN[C@@H](C)C(=O)O; Nme = COCCNCC(=O)O
READOUT: IC50

INSERT INTO assay_data (compound, readout, reported) VALUES
  ('COCCN1CC(=O)N(C)[C@@H](C)C(=O)N[C@@H](Cc2ccc(F)cc2)C(=O)N[C@@H](C(C)(C)C)C(=O)N[C@@H](Cc2ccc(Cl)cc2)C(=O)N2CCCC[C@@H]2C(=O)N2CCC[C@H]2C(=O)N[C@@H](Cc2ccccc2)C(=O)N[C@@H](C(C)(C)C)C(=O)N[C@@H](Cc2cccnc2)C1=O [Compound 29] (cyclo([3Pal][Nme][NMeA][Phe(4-F)][Tle][Phe(4-Cl)][dPip]PF[Tle]))', 'IC50', '< 1 µM'),
  ('COCCN1CC(=O)N(C)[C@@H](C)C(=O)N[C@@H](Cc2ccc(F)cc2)C(=O)N(C)[C@@H](C)C(=O)N[C@@H](Cc2ccc(Cl)cc2)C(=O)N(C)[C@H](C(C)C)C(=O)N2CCC[C@H]2C(=O)N[C@@H](Cc2ccccc2)C(=O)N[C@@H](C(C)(C)C)C(=O)N[C@@H](Cc2cccnc2)C1=O [Compound 23] (cyclo([3Pal][Nme][NMeA][Phe(4-F)][NMeA][Phe(4-Cl)][dNMeV]PF[Tle]))', 'IC50', '< 1 µM'),
  ('C[C@H]1C(=O)N[C@@H](Cc2ccc(Cl)cc2)C(=O)N2CCCC[C@@H]2C(=O)N2CCC[C@H]2C(=O)N[C@@H](Cc2ccccc2)C(=O)N[C@@H](C(C)(C)C)C(=O)N[C@@H](Cc2ccc(O)cc2)C(=O)N2CCC[C@@H]2C(=O)N(C)[C@@H](C)C(=O)N[C@@H](Cc2ccc(F)cc2)C(=O)N1C [Compound 11] (cyclo(F[Tle]Y[dP][NMeA][Phe(4-F)][NMeA][Phe(4-Cl)][dPip]P))', 'IC50', '≥ 5 µM');

---

target: Human MDM4 (HDM4) 1-114 (Homo sapiens); construct: Human MDM4 (HDM4) 1-114; assay: Fluorescence polarization assay 2, MDM4 (Table 4); format: binding; settings: Table 4; fluorescence polarization; read-out: MDM4 IC50
Sequence (O15151 1-114): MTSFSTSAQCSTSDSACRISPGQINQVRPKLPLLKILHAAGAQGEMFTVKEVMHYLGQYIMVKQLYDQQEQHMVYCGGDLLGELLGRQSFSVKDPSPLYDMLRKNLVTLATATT
Non-standard residues stand in square brackets, D forms with d. Residues, ends and D or L forms follow the SMILES beside them. Ala(4-thiazolyl) = N[C@@H](Cc1cscn1)C(=O)O; NMePhe(4-F) = CN[C@@H](Cc1ccc(F)cc1)C(=O)O; Phe(4-Cl) = N[C@@H](Cc1ccc(Cl)cc1)C(=O)O; Phe(4-F) = N[C@@H](Cc1ccc(F)cc1)C(=O)O; NMeF = CN[C@@H](Cc1ccccc1)C(=O)O; Tle = CC(C)(C)[C@H](N)C(=O)O; hSer = N[C@@H](CCO)C(=O)O; NMeA = CN[C@@H](C)C(=O)O; dNMeA = CN[C@H](C)C(=O)O; Nme = COCCNCC(=O)O
READOUT: IC50

INSERT INTO measurements (molecule, reported) VALUES
  ('COCC[C@@H]1NC(=O)[C@H]2CCCN2C(=O)[C@H](Cc2ccccc2)N(C)C(=O)[C@H](Cc2ccc(Cl)cc2)NC(=O)[C@H](C(C)C)NC(=O)[C@H](Cc2ccc(F)cc2)NC(=O)CN(CCOC)C(=O)[C@@H](C)N(C)C(=O)[C@H](Cc2cscn2)NC(=O)[C@H](C)N(C)C1=O [Compound 41] (cyclo([Ala(4-thiazolyl)][dNMeA][Nme][Phe(4-F)]V[Phe(4-Cl)][NMeF][dP][hSer](Me)[NMeA]))', '< 0.05 µM'),
  ('COCC[C@@H]1NC(=O)[C@H]2CCCN2C(=O)[C@H](Cc2ccccc2)N(C)C(=O)[C@H](Cc2ccc(Cl)cc2)NC(=O)[C@H](C(C)(C)C)NC(=O)[C@H](Cc2ccc(F)cc2)NC(=O)[C@H](C)N(C)C(=O)[C@@H](C)N(C)C(=O)[C@H](Cc2cscn2)NC(=O)[C@H](C)N(C)C1=O [Compound 36] (cyclo([Ala(4-thiazolyl)][dNMeA][NMeA][Phe(4-F)][Tle][Phe(4-Cl)][NMeF][dP][hSer](Me)[NMeA]))', '0.05 to 0.1 µM'),
  ('COCC[C@@H]1NC(=O)[C@H]2CCCN2C(=O)[C@H](Cc2ccccc2)N(C)C(=O)[C@H](Cc2ccc(Cl)cc2)NC(=O)[C@H](C)N(C)C(=O)[C@H](Cc2ccc(F)cc2)NC(=O)CN(CCOC)C(=O)[C@@H](C)N(C)C(=O)[C@H](Cc2cscn2)NC(=O)[C@H](C)N(C)C1=O [Compound 40] (cyclo([Ala(4-thiazolyl)][dNMeA][Nme][Phe(4-F)][NMeA][Phe(4-Cl)][NMeF][dP][hSer](Me)[NMeA]))', '> 0.15 µM'),
  ('COCC[C@@H]1NC(=O)[C@H]2CCCN2C(=O)[C@H](Cc2ccccc2)N(C)C(=O)[C@H](Cc2ccc(Cl)cc2)NC(=O)[C@H](C(C)(C)C)NC(=O)[C@H](Cc2ccc(F)cc2)NC(=O)CN(CCOC)C(=O)[C@@H](C)N(C)C(=O)[C@H](Cc2cscn2)NC(=O)[C@H](C)N(C)C1=O [Compound 35] (cyclo([Ala(4-thiazolyl)][dNMeA][Nme][Phe(4-F)][Tle][Phe(4-Cl)][NMeF][dP][hSer](Me)[NMeA]))', '> 0.15 µM'),
  ('COCC[C@@H]1NC(=O)[C@H]2CCCN2C(=O)[C@H](Cc2ccc(F)cc2)N(C)C(=O)[C@H](Cc2ccc(Cl)cc2)NC(=O)[C@H](C(C)(C)C)NC(=O)[C@H](Cc2ccc(F)cc2)NC(=O)[C@H](C)N(C)C(=O)[C@@H](C)N(C)C(=O)[C@H](Cc2cscn2)NC(=O)[C@H](C)N(C)C1=O [Compound 38] (cyclo([Ala(4-thiazolyl)][dNMeA][NMeA][Phe(4-F)][Tle][Phe(4-Cl)][NMePhe(4-F)][dP][hSer](Me)[NMeA]))', '0.05 to 0.1 µM');
